target: Factor D (Homo sapiens)
Sequence (P00746 26-253): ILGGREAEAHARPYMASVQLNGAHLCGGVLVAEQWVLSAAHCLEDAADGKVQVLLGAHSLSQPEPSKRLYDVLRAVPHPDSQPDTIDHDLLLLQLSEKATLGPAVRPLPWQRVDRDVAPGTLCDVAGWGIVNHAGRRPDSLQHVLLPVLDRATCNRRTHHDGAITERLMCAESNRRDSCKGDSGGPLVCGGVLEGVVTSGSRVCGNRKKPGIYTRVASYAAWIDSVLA
pIC50: −log10 of the molar value.
quantity.kind: pIC50

>>> recorded_value("NCc1cn(CC(=O)N2C[C@H](F)C[C@H]2C(=O)NCc2cccc(Cl)c2F)c2ncnc(N)c12 [Compound 141a]")
"< 6.00"
>>> recorded_value("CC(C)(C)OC(=O)Nc1ccc2c3c(N)ncnc3n(CC(=O)N3[C@@H]4C[C@@H]4C[C@H]3C(=O)Nc3cccc(Br)n3)c2c1 [Compound 17f]")
"> 7.00"
>>> recorded_value("Cc1cc(-c2cccnc2C(F)(F)F)cc2c3c(N)ncnc3n(CC(=O)N3[C@H](C(=O)Nc4cccc(Br)n4)C[C@@]4(C)C[C@@H]34)c12 [Compound 358c]")
"6.00 to 7.00"
>>> recorded_value("Cc1cc(C(F)(F)F)cc2c3c(N)ncnc3n(CC(=O)N3[C@@H]4C[C@@H]4C[C@H]3C(=O)Nc3nc(Br)ccc3F)c12 [Compound 317c]")
"6.00 to 7.00"
>>> recorded_value("Cc1cn(CC(=O)N2C[C@H](F)C[C@H]2C(=O)NCc2cccc(Cl)c2F)c2ncnc(N)c12 [Compound 150d]")
"6.00 to 7.00"
>>> recorded_value("Nc1ncnc2c1c1cc(C(F)(F)F)ccc1n2CC(=O)N1C[C@H](F)C[C@H]1C(=O)NCc1cccc(Cl)c1F [Compound 25a]")
"> 7.00"
>>> recorded_value("Cc1cc(-c2ccncc2)cc2c3c(N)ncnc3n(CC(=O)N3[C@@H]4C[C@@H]4C[C@H]3C(=O)Nc3cccc(Br)n3)c12 [Compound 263c]")
"> 7.00"
>>> recorded_value("C[C@@]12C[C@@H](C(=O)Nc3cccc(Br)n3)N(C(=O)Cn3c4ccc(CCC(=O)O)cc4c4c(N)ncnc43)[C@@H]1C2 [Compound 214b]")
"> 7.00"
>>> recorded_value("Cc1nc(N)c2ccn(CC(=O)N3C[C@H](F)C[C@H]3C(=O)NCc3cccc(Cl)c3F)c2n1 [Compound 132d]")
"< 6.00"
>>> recorded_value("N#Cc1ccc2c(c1)c1c(N)ncnc1n2CC(=O)N1[C@@H]2C[C@@H]2C[C@H]1C(=O)Nc1cccc(Br)n1 [Compound 49c]")
"> 7.00"

// query Reported pIC50 for Cc1cc(C(=O)O)cc2c3c(N)ncnc3n(CC(=O)N3[C@@H]4C[C@@H]4C[C@H]3C(=O)Nc3cccc(Br)n3)c12 [Compound 218a] : what is it?
// result > 7.00

// query Reported pIC50 for C[C@@H]1C[C@@H](C(=O)NCc2cccc(Cl)c2F)N(C(=O)Cn2cnc3c(N)ncnc32)C1 [Compound 121d] : what is it?
// result < 6.00

// query Reported pIC50 for C[C@@]1(F)C[C@@H](C(=O)Nc2cncc(Br)n2)N(C(=O)Cn2c3ccc(C(F)(F)F)cc3c3c(N)ncnc32)C1 [Compound 213d] : what is it?
// result > 7.00

// query Reported pIC50 for Nc1ccnc2c1ccn2CC(=O)N1C[C@H](F)C[C@H]1C(=O)NCc1cccc(Cl)c1F [Compound 131e] : what is it?
// result 6.00 to 7.00

// query Reported pIC50 for Cc1ccc(Br)nc1NC(=O)[C@@H]1C[C@@]2(C)C[C@H]2N1C(=O)Cn1c2ccc(C(F)(F)F)cc2c2c(N)ncnc21 [Compound 11f] : what is it?
// result > 7.00
